B1: library; a variant is named by its letters at N, in order (parent)
chain: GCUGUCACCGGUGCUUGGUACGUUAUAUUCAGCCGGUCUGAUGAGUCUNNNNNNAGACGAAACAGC

# Variants of: B1
# test summary: normalized RNA/DNA level without ligand (relative to sTRSVctl = 100) (log10 (% of sTRSVctl)); HEK293T overexpressing SLC46A1; higher = less ribozyme self-cleavage, higher mRNA level
# conditions used: without (6R,S)-folinic acid; ligand present: no
# normalized RNA/DNA level without ligand (log10) per record follows
reported property: normalized RNA/DNA level without ligand (log10)

- variant id: "GACUCC"
  test result: 2.05
- variant id: "AUUUAG"
  test result: 1.95
- variant id: "UGAAAC"
  test result: 1.95
- variant id: "CAGUCA"
  test result: 1.97
- variant id: "UGCAGG"
  test result: 1.68
- variant id: "CCACAG"
  test result: 1.95
